experiment: Primary qHTS for delayed death inhibitors of the malarial parasite plastid, 96 hour incubation; details: P. falciparum luciferase reporter growth; series mostly up to 28.7 µM
In all, about 320,000 compounds went through this assay and about 22,000 (6.9%) were called active. Not shown: some 27% with an inconclusive outcome. The call rests on the fitted dose curve; in most records, active means well fitted inhibition curve with a large enough effect; inconclusive means small, poorly fitted or top-dose-only effect, or another doubt; inactive means no such curve, though single readings can be large or run the other way. For the sample, actives were picked, then their nearest neighbours and some compounds at random.
Your answer must be one of the following: active, inactive

Ask | What did the test return for O=C(NC1CCN(Cc2ccccc2)CC1)c1c(F)cccc1F ?
Reply | inactive

Ask | Note, next up: Cc1cc(C)cc(OCC(=O)Nc2ccc(S(=O)(=O)Nc3ccccn3)cc2)c1
Reply | active

Ask | Note, next up: CCOC(=O)C1=C(C)NC(SC)=NC1c1ccccc1 (centres undefined)
Reply | inactive

Ask | Note, next up: CCOc1ccc(OCC)c(NC(=O)C2CCN(S(=O)(=O)c3c(C)noc3C)CC2)c1
Reply | inactive

Ask | Note, next up: COc1cccc(NC(=O)NCCN2CCCCC2)c1
Reply | inactive

Ask | Note, next up: CCOC(=O)c1cc(C(C)C)sc1NC(=O)COC(=O)c1nccnc1N
Reply | inactive

Ask | Note, next up: O=C(NCc1ccco1)/C(=C/c1cccc([N+](=O)[O-])c1)NC(=O)c1ccco1
Reply | inactive

Ask | Note, next up: COc1ccc(F)cc1C(=O)COC(=O)c1n[nH]c(=O)c2ccccc12
Reply | inactive

Ask | Note, next up: CCCCCCn1cc(C(=O)O)c(=O)c2cc(F)c(N3CCCCC3)cc21
Reply | inactive

Ask | Note, next up: CCOc1ccc2sc(NS(=O)(=O)c3ccc(N)cc3)nc2c1
Reply | inactive

Ask | Note, next up: COc1ccc(-c2ccc3nnc(SCC(=O)Nc4ccc(NC(C)=O)cc4)n3n2)cc1
Reply | inactive

Ask | Note, next up: O=C(c1ccc2nc(N3CCOCC3)sc2c1)N1CCN(c2ccc(Cl)cc2)CC1
Reply | inactive

Ask | Note, next up: Cc1ccc(NC(=O)Nc2nnc(-c3ccncc3)s2)cc1
Reply | active

Ask | Note, next up: CC(C)CN(CC(C)C)C(=O)CN1c2cccc3cccc(c23)S1(=O)=O
Reply | inactive

Ask | Note, next up: COC(=O)c1cc(S(=O)(=O)N2CCC(C(N)=O)CC2)oc1C
Reply | inactive

Ask | Note, next up: O=S(=O)(Nc1ccc2nc(N3CCOCC3)sc2c1)c1ccccc1
Reply | inactive

Ask | Note, next up: Cc1ccc(OCC(=O)Nc2nnc(-c3ccco3)s2)cc1
Reply | inactive

Ask | Note, next up: Cc1ccc(OCC(=O)Nc2ccc(S(=O)(=O)Nc3ccccn3)cc2)cc1
Reply | inactive

Ask | Note, next up: COc1ccc(Cl)cc1C(=O)OCC(=O)NCc1cccs1
Reply | inactive

Ask | Note, next up: CCNc1ccc(C(=O)OCC(=O)N2c3ccccc3NC(=O)C2(C)C)cc1[N+](=O)[O-]
Reply | active

Ask | Note, next up: O=C(Nc1ccc(CN2CCOCC2)cc1)c1cc(Cl)ccc1Cl
Reply | inactive

Ask | Note, next up: Cc1cc(C(=O)OCC(=O)N2c3ccccc3NC(=O)C2(C)C)c(C)n1-c1ccccc1
Reply | inactive

Ask | Note, next up: CCOC(=O)C1CCN(C(=O)C2CCN(S(=O)(=O)N3CCCC3)CC2)CC1
Reply | active

Ask | Note, next up: Cc1ccc(S(=O)(=O)N[C@@H](Cc2ccccc2)C(=O)N2CCC(C(=O)N[C@H](C(=O)O)C(C)O)CC2)cc1 (some centres undefined)
Reply | inactive

Ask | Note, next up: O=[N+]([O-])c1cccc(S(=O)(=O)NCc2ccccn2)c1
Reply | inactive

Ask | Note, next up: Fc1cc(F)c2nc(N3CCOCC3)sc2c1
Reply | active

Ask | Note, next up: Cc1c(CN2CCC(n3nccc3NC(=O)CCc3ccccc3)CC2)cnn1C
Reply | inactive

Ask | Note, next up: Cc1ccc(Nc2nc(-c3ccc(O)cc3O)cs2)nc1
Reply | inactive

Ask | Note, next up: C=CCC(NC(=O)Cc1ccccc1)C(=O)NCCC (centres undefined)
Reply | inactive

Ask | Note, next up: COc1cccc(OCc2cc(/C=N/NC(=O)c3nc(Cl)c(Cl)c(N)c3Cl)ccc2OC)c1
Reply | active

Ask | Note, next up: CC(C)(C)c1cc[n+](-c2[nH]c(=O)sc2/C=N/N=C(\[O-])c2ccccc2)cc1
Reply | inactive

Ask | Note, next up: COc1ccc(CN2CCN(Cc3ccc(OC)c(OC)c3OC)CC2)cc1
Reply | inactive

Ask | Note, next up: COc1ccc(/C=N/NC(=O)c2ccc(Cl)cc2)cc1COC(C)=O
Reply | inactive

Ask | Note, next up: CSc1nc2ccccc2c(=O)n1Cc1ccc(F)cc1
Reply | inactive
